# System: HeLa Kyoto
# EXPERIMENT NOTES: solubility in G1/S (NP-40 vs SDS abundance) (log2 ratio); higher = more soluble
# RUN PARAMETERS: cell cycle stage: G1/S
READOUT LABEL: solubility in G1/S (log2)
Format: numeric value only, no unit, no commentary.

[[record]]
chain = "MDTLDRVVKPKTKRAKRFLEKREPKLNENIKNAMLIKGGNANATVTKVLKDVYALKKPYGVLYKKKNITRPFEDQTSLEFFSKKSDCSLFMFGSHNKKRPNNLVIGRMYDYHVLDMIELGIENFVSLKDIKNSKCPEGTKPMLIFAGDDFDVTEDYRRLKSLLIDFFRGPTVSNIRLAGLEYVLHFTALNGKIYFRSYKLLLKKSGCRTPRIELEEMGPSLDLVLRRTHLASDDLYKLSMKMPKALKPKKKKNISHDTFGTTYGRIHMQKQDLSKLQTRKMKGLKKRPAERITEDHEKKSKRIKKN [RPF2]"
study_target = "HeLa Kyoto"
result_value = -2.68

[[record]]
chain = "MSMTLGYWDIRGLAHAIRLLLEYTDSSYEEKKYTMGDAPDYDRSQWLNEKFKLGLDFPNLPYLIDGAHKITQSNAILCYIARKHNLCGETEEEKIRVDILENQAMDVSNQLARVCYSPDFEKLKPEYLEELPTMMQHFSQFLGKRPWFVGDKITFVDFLAYDVLDLHRIFEPNCLDAFPNLKDFISRFEGLEKISAYMKSSRFLPKPLYTRVAVWGNK [GSTM4]"
study_target = "HeLa Kyoto"
result_value = -0.0869


Now examine the next entry.
Given MAAAALRRFWSRRRAEAGDAVVAKPGVWARLGSWARALLRDYAEACRDASAEARARPGRAAVYVGLLGGAAACFTLAPSEGAFEEALLEASGTLLLLAPATRNRESEAFVQRLLWLRGRGRLRYVNLGLCSLVYEAPFDAQASLYQARCRYLQPRWTDFPGRVLDVGFVGRWWVLGAWMRDCDINDDEFLHLPAHLRVVGPQQLHSETNERLFDEKYKPVVLTDDQVDQALWEEQVLQKEKKDRLALSQAHSLVQAEAPR [C19ORF52] , respond with its solubility in G1/S (log2).
-0.131

====

// values below are reported melting temperature
# Tested on: HeLa Kyoto
# EXPERIMENT NOTES: melting temperature (median over replicates), in situ; higher = more thermally stable
# RUN PARAMETERS: cell cycle stage: G1/S
The reply should contain only the number, in °C.

Answered cases to consult:
[[record]]
chain = "MEDSGKTFSSEEEEANYWKDLAMTYKQRAENTQEELREFQEGSREYEAELETQLQQIETRNRDLLSENNRLRMELETIKEKFEVQHSEGYRQISALEDDLAQTKAIKDQLQKYIRELEQANDDLERAKRATIMSLEDFEQRLNQAIERNAFLESELDEKENLLESVQRLKDEARDLRQELAVQQKQEKPRTPMPSSVEAERTDTAVQATGSVPSTPIAHRGPSSSLNTPGSFRRGLDDSTGGTPLTPAARISALNIVGDLLRKVGALESKLASCRNLVYDQSPNRTGGPASGRSSKNRDGGERRPSSTSVPLGDKGLDTSCRWLSKSTTRSSSSC [NDE1]"
study_target = "HeLa Kyoto"
readout_label = "melting temperature"
result_value = 54.1

[[record]]
chain = "MVTEQEVDAIGQTLVDPKQPLQARFRALFTLRGLGGPGAIAWISQAFDDDSALLKHELAYCLGQMQDARAIPMLVDVLQDTRQEPMVRHEAGEALGAIGDPEVLEILKQYSSDPVIEVAETCQLAVRRLEWLQQHGGEPAAGPYLSVDPAPPAEERDVGRLREALLDESRPLFERYRAMFALRNAGGEEAALALAEGLHCGSALFRHEVGYVLGQLQHEAAVPQLAAALARCTENPMVRHECAEALGAIARPACLAALQAHADDPERVVRESCEVALDMYEHETGRAFQYADGLEQLRGAPS [DOHH]"
study_target = "HeLa Kyoto"
readout_label = "melting temperature"
result_value = 50.3

[[record]]
chain = "MASKCPKCDKTVYFAEKVSSLGKDWHKFCLKCERCSKTLTPGGHAEHDGKPFCHKPCYATLFGPKGVNIGGAGSYIYEKPLAEGPQVTGPIEVPAARAEERKASGPPKGPSRASSVTTFTGEPNTCPRCSKKVYFAEKVTSLGKDWHRPCLRCERCGKTLTPGGHAEHDGQPYCHKPCYGILFGPKGVNTGAVGSYIYDRDPEGKVQP [CRIP2]"
study_target = "HeLa Kyoto"
readout_label = "melting temperature"
result_value = 55

[[record]]
chain = "MGSQVSVESGALHVVIVGGGFGGIAAASQLQALNVPFMLVDMKDSFHHNVAALRASVETGFAKKTFISYSVTFKDNFRQGLVVGIDLKNQMVLLQGGEALPFSHLILATGSTGPFPGKFNEVSSQQAAIQAYEDMVRQVQRSRFIVVVGGGSAGVEMAAEIKTEYPEKEVTLIHSQVALADKELLPSVRQEVKEILLRKGVQLLLSERVSNLEELPLNEYREYIKVQTDKGTEVATNLVILCTGIKINSSAYRKAFESRLASSGALRVNEHLQVEGHSNVYAIGDCADVRTPKMAYLAGLHANIAVANIVNSVKQRPLQAYKPGALTFLLSMGRNDGVGQISGFYVGRLMVRLTKSRDLFVSTSWKTMRQSPP [AIFM2]"
study_target = "HeLa Kyoto"
readout_label = "melting temperature"
result_value = 55.3

[[record]]
chain = "MADFLPSRSVLSVCFPGCLLTSGEAEQQRKSKEIDKCLSREKTYVKRLVKILLLGAGESGKSTFLKQMRIIHGQDFDQRAREEFRPTIYSNVIKGMRVLVDAREKLHIPWGDNSNQQHGDKMMSFDTRAPMAAQGMVETRVFLQYLPAIRALWADSGIQNAYDRRREFQLGESVKYFLDNLDKLGEPDYIPSQQDILLARRPTKGIHEYDFEIKNVPFKMVDVGGQRSERKRWFECFDSVTSILFLVSSSEFDQVLMEDRLTNRLTESLNIFETIVNNRVFSNVSIILFLNKTDLLEEKVQIVSIKDYFLEFEGDPHCLRDVQKFLVECFRNKRRDQQQKPLYHHFTTAINTENIRLVFRDVKDTILHDNLKQLMLQ [GNA13]"
study_target = "HeLa Kyoto"
readout_label = "melting temperature"
result_value = 53.7


Now examine the next entry.
Given MAGSSEEAPDYGRGVVIMDDWPGYDLNLFTYPQHYYGDLEYVLIPHGIIVDRIERLAKDIMKDIGYSDIMVLCVLKGGYKFCADLVEHLKNISRNSDRFVSMKVDFIRLKSYRNDQSMGEMQIIGGDDLSTLAGKNVLIVEDVVGTGRTMKALLSNIEKYKPNMIKVASLLVKRTSRSDGFRPDYAGFEIPNLFVVGYALDYNEYFRDLNHICVINEHGKEKYRV [PRTFDC1] , respond with its melting temperature.
56.5
